# Test system: AABA1060 (clinical isolate of Acinetobacter baumannii)
# Run Description: MIC broth microdilution, AABA1060
# Type: cell-based
# Experimental Parameters: Acinetobacter baumannii, read-out: MIC AABA1060
Measured MIC, listed per entry for reference.

# annotated cases, reported MIC shown
CC(C)(N)[C@H](NC(=O)c1ccc(C#CC#Cc2ccc(C(F)(F)F)cc2)cc1)C(=O)NO: 2 to 16 µg/mL
C[C@@H](N)[C@H](NC(=O)c1ccc(C#CC#Cc2cnn(C)c2)cc1)C(=O)NO: 2 to 16 µg/mL
COC1CCN(Cc2ccc(C#Cc3ccc(C(=O)N[C@H](C(=O)NO)[C@@H](C)N)cc3)cc2)CC1: 2 to 16 µg/mL
C[C@@H](O)[C@H](NC(=O)c1ccc(C2CCN(c3ccc(CN4CCOCC4)cc3)CC2)cc1)C(=O)NO: > 64 µg/mL
CC(C)(N)[C@H](NC(=O)c1ccc(C#Cc2ccc(CNC3CC3)cc2)cc1)C(=O)NO: 2 to 16 µg/mL

Qu. // fetch MIC given entry CC(C)C(C(=O)NO)C(=O)Nc1ccc(C#Cc2ccc(CN3CCOCC3)cc2)cc1 (stereo not shown)
Ans. > 64 µg/mL

Qu. // fetch MIC given entry C[C@@H](N)[C@H](NC(=O)c1ccc(C#Cc2ccc(CNCC(F)F)cc2)cc1)C(=O)NO
Ans. 2 to 16 µg/mL
